- ASSAY_TARGET: T1, M9
- T1 construct: also called PD1 mutant M9
- PROTOCOL_TEXT: scFv-phage ELISA
ASSAY_ENDPOINT: OD490

input: Which OD490 is listed for PD1-45F1 (antibody, V domains shown, scFv-phage in the screening ELISA; later whole IgG) VH: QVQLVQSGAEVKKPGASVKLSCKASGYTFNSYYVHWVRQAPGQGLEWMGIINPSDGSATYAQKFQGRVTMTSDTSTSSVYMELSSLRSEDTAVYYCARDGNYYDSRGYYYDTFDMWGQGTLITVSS VL: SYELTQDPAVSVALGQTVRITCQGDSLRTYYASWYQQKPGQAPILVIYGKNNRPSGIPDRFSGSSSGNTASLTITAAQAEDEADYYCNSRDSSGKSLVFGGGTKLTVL ?
output: 3.8

input: What do we get for PD1-42G4 (antibody, V domains shown, scFv-phage in the screening ELISA; later whole IgG) VH: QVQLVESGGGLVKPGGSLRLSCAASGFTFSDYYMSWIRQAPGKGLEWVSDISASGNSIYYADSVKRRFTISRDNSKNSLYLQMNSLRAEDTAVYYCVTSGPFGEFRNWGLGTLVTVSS VL: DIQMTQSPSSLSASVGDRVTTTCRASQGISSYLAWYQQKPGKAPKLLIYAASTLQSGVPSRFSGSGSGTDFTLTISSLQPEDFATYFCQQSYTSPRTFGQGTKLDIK ?
output: 3.4

input: What do we get for PD1-52E8 (antibody, V domains shown, scFv-phage in the screening ELISA; whole IgG in the other assays) VH: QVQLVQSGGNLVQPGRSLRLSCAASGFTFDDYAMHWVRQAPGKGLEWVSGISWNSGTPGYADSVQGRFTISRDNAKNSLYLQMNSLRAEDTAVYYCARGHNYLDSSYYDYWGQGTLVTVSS VL: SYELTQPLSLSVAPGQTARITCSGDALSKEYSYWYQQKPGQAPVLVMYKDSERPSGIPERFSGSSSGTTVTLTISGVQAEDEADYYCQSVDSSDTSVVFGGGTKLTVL ?
output: 2.4
